SUBJECT OF TEST: T1, ECF27_4265
T1 chain: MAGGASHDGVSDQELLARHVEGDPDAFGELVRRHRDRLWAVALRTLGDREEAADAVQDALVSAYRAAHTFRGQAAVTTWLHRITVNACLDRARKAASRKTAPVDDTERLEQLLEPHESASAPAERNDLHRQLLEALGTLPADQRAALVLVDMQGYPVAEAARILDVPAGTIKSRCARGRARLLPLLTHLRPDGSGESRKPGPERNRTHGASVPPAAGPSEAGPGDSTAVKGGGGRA
binders and their reported fold repression

| BINDER | fold repression |
| --- | --- |
| AS01_3473 (protein) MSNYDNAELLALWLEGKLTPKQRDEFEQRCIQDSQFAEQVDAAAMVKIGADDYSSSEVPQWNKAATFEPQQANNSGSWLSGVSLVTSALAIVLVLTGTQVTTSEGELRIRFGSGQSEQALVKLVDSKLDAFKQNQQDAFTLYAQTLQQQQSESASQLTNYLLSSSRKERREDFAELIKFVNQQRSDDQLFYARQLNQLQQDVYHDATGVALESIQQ | 1.92 |
| AS37_2513 (protein) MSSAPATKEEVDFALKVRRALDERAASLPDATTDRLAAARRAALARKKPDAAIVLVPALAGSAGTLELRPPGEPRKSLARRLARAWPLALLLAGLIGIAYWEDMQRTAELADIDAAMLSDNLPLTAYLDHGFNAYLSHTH | 2.71 |
| AS03_1244 (protein) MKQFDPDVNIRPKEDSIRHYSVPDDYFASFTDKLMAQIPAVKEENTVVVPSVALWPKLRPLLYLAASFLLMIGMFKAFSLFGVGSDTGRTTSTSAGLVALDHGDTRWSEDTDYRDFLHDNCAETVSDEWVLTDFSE | 1.61 |
| AS20_992 (protein) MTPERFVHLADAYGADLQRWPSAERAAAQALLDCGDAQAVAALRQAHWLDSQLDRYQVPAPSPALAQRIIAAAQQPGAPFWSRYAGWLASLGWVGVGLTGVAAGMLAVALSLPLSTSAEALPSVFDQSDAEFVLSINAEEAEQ | 1.1 |
| AS35_3582 (protein) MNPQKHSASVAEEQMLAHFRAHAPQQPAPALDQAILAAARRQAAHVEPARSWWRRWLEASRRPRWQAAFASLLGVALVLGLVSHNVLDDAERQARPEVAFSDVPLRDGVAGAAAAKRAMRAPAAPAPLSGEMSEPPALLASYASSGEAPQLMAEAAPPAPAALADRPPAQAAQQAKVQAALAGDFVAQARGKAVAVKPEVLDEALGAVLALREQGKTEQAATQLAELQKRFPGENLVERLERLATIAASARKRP | 2.28 |
| AS11_987 (protein) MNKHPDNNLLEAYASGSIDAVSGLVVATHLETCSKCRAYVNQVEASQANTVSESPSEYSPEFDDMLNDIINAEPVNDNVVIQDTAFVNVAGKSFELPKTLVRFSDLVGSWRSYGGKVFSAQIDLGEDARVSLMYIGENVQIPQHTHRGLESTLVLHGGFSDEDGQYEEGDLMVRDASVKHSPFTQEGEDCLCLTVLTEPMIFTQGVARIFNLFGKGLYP | 2.05 |
| AS25_1643_cl43 (protein) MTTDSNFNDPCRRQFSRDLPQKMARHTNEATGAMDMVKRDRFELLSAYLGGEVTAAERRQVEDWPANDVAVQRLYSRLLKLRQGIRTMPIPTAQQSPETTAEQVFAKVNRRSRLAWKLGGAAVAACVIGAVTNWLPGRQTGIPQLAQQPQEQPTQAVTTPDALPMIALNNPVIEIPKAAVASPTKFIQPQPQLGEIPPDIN | 0.954 |
| AS14_1324 (protein) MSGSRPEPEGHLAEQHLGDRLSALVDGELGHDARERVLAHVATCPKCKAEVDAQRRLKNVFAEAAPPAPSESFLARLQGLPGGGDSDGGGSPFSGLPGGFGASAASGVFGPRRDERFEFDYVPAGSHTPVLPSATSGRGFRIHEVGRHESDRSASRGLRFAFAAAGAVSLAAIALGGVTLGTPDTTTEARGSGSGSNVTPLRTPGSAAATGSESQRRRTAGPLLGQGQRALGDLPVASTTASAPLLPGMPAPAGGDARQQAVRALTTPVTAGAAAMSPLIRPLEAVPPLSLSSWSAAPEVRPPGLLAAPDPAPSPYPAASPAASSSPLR | 2.31 |
| AS22_1147 (protein) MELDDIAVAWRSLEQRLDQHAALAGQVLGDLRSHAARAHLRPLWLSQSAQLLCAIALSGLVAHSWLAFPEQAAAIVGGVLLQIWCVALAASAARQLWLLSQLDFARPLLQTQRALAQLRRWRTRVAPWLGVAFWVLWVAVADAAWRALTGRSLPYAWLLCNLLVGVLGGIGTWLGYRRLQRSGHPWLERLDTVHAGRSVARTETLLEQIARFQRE | 1.86 |
| AS22_4450 (protein) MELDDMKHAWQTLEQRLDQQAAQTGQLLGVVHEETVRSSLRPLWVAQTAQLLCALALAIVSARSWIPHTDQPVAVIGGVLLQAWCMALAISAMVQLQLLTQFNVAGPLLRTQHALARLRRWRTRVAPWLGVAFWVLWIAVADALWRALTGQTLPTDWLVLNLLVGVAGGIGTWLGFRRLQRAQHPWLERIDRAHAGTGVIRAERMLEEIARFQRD | 1.4 |
| AS30_35 (protein) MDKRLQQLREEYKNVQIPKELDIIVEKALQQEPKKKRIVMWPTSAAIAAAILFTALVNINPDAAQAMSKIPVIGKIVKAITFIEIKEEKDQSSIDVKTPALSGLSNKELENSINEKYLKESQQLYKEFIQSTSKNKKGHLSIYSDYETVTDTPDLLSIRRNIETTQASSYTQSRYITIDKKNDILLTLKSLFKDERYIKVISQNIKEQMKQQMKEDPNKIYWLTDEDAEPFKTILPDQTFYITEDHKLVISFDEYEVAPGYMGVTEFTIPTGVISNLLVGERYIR | 1.44 |

Cited source: paper PMC3817407
